The following compounds are shown together with reported IC50 values.
System Tested: HER2 YVMA (Homo sapiens, UniProt P04626, INS775YVMA)
Sequence (P04626 with tags, fused parts or gaps INS775YVMA): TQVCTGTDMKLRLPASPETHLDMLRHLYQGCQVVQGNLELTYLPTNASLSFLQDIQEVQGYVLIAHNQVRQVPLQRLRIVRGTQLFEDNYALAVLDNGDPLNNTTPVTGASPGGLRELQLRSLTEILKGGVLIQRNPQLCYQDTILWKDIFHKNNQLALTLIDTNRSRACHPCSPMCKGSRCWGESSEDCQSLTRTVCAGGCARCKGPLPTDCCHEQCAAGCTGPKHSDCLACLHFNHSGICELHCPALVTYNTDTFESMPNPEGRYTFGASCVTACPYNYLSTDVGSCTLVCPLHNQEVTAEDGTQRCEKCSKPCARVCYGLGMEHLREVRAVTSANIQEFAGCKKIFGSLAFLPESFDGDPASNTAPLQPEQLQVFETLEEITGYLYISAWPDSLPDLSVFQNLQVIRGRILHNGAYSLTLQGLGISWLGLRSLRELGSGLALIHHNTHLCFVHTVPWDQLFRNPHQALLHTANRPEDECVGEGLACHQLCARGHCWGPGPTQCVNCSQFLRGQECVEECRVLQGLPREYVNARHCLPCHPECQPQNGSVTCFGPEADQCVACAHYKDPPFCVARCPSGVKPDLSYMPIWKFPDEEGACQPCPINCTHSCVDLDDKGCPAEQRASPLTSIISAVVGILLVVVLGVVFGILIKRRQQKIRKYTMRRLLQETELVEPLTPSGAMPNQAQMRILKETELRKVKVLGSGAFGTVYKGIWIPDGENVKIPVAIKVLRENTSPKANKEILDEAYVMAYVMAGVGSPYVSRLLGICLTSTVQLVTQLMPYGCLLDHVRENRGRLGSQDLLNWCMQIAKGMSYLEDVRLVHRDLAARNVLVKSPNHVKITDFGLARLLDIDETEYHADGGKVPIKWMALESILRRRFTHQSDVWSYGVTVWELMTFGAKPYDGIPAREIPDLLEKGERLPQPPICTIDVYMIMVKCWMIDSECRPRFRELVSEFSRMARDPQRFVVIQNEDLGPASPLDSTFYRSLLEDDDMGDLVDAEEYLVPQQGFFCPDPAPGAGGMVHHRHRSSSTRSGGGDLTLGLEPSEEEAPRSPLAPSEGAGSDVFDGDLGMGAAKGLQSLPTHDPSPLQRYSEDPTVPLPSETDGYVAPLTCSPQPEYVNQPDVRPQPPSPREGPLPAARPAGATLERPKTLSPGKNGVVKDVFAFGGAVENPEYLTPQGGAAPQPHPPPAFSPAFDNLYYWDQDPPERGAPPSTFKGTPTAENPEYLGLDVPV
Assay Method Text: BaF3 cell proliferation assay (CellTiterGlo), HER2 YVMA
Test Settings: Table A; BaF3 cells, 3 days

Field: example entries. Status: answers known.
INSERT INTO results (compound, result) VALUES
  ('CN1C[C@H]2C[C@@]2(C#Cc2cc3ncnc(Nc4cccc(Cl)c4F)c3cc2NC(=O)/C=C/CN2CCOCC2)C1 [Compound 37]', '100 to 500 nM'),
  ('C=CC(=O)Nc1cc2c(Nc3cc(Cl)ccc3F)ncnc2cc1C#CC1(C)COC1 [Compound 29]', '> 500 nM'),
  ('C=CC(=O)Nc1cc2c(Nc3cccc(Cl)c3F)ncnc2cc1C#CC12CCN(CC1)CC2 [Compound 17]', '100 to 500 nM'),
  ('C=CC(=O)Nc1cc2c(Nc3cccc(Cl)c3F)ncnc2cc1C#C[C@@]1(OC)CCN(C)C1 [Compound 35]', '≤ 50 nM'),
  ('C=CC(=O)Nc1cc2c(Nc3ccc(Cl)c(Cl)c3F)ncnc2cc1C#CC1C2COCC12 (stereo not drawn) [Compound No. 80]', '100 to 500 nM'),
  ('C=CC(=O)Nc1cc2c(Nc3ccc(F)c(Cl)c3F)ncnc2cc1C#CC1(C)CCN(C)C1 (stereo not drawn) [Compound 8]', '100 to 500 nM'),
  ('C=CC(=O)Nc1cc2c(Nc3cccc(Cl)c3F)ncnc2cc1C#C[C@]1(C)CCN(C2COC2)C1 [Compound 58]', '> 500 nM'),
  ('C=CC(=O)Nc1cc2c(Nc3cccc(Cl)c3F)ncnc2cc1C#C[C@@H]1[C@H]2CN(C)C[C@@H]12 [Compound 78]', '100 to 500 nM'),
  ('C=CC(=O)Nc1cc2c(Nc3cccc(Cl)c3F)ncnc2cc1C#CC1(C)CCN(C)C1 (stereo not drawn) [Compound 1]', '100 to 500 nM'),
  ('CC#CC(=O)Nc1cc2c(Nc3ccc(OCc4ccccn4)c(Cl)c3)ncnc2cc1C#CC1(C)CCN(C)C1 (stereo not drawn) [Compound 70]', '≤ 50 nM');

Please provide the recorded IC50 for CC#CC(=O)Nc1cc2c(Nc3cccc(Cl)c3F)ncnc2cc1C#C[C@@H]1[C@H]2CN(C)C[C@@H]12 [Compound 74] , tested on HER2 YVMA (Homo sapiens, UniProt P04626, INS775YVMA).
> 500 nM

Same lookup for C=C(CO)C(=O)Nc1cc2c(Nc3cccc(Cl)c3F)ncnc2cc1C#C[C@@]1(C)CCN(C)C1 [Compound 31] , please.
100 to 500 nM

Same lookup for C=CC(=O)Nc1cc2c(Nc3cccc(Cl)c3F)ncnc2cc1C#C[C@@]1(C)CCN(C2COC2)C1 [Compound 59] , please.
> 500 nM

Same lookup for CNC(=O)Nc1cc2c(Nc3cccc(Cl)c3F)ncnc2cc1C#CC1(C)CCN(C)C1 (stereo not drawn) [Compound 57] , please.
> 500 nM

Same lookup for C=CC(=O)Nc1cc2c(Nc3cccc(Cl)c3F)ncnc2cc1C#C[C@@]1(C)CCN(C)C1 [Compound 2] , please.
100 to 500 nM

Same lookup for C=CC(=O)Nc1cc2c(Nc3cccc(Cl)c3F)ncnc2cc1C#CC12CCC(CC1)N2C [Compound 10] , please.
> 500 nM
